- PROTOCOL DETAILS: yeast display, Sf9 membrane polyspecificity reagent, FACS + sequencing; frameworks hold sequencing errors
ASSAY READOUT: polyreactivity (PSR sort gate)

In the examples that follow, each entry is paired with its recorded polyreactivity (PSR sort gate).
• QVQLVESGGGLVQAGGSLRLICAASGFIFTGYVMGWYRQEPGKERELVAAISSRGGSTYYADSVKGRFTISRDNAKNTVYLQMNSLKPEDTAVYYCAARYVYGSSYDYWGQGTQVTVSS = high polyreactivity
• QVQLEESGGGLLQAGGSHSLSCAASGSTFYKYGMVWYRQAPGKEREFVAAISGSGDSTYYADSVKGRFTISRDNAKNTVYLHMNRLKPEDTAVYYCNAGPWWYLHEYDYWGQGTQVNVSS = low polyreactivity
• QVQLVESGGGLVQAGGSLRLSCAASGSTFIYYARGWYRQAPGKERELVASISRSGGSPYYADSVKGRFTISRDNAKNTVYLQMNSLKPEATAVYDCARAYRSSFNYWGQGTQVTVSS = high polyreactivity
• QVQLVESGGGLVQGGGSLRLSCADSGRTSDGYPMRWYRQATGKERELVAVITEGGGDTYYADSVKGRFTISRDHSKNTVYLKMNSLKPEDSAVYYCNAVEGSRLTYDYWGQGTQVTVSS = low polyreactivity
• QVQLVESGGGLVQAGGSLRLICAASGLTFDVNAMGWYRQAPGKERELVAAITADDGSTYYADSVKGRFTISRDNAKNTVYLQMNSLKPEDTAVYYCNADTRTQGPYSAPYYREMNYWGQGTQVTVSS = low polyreactivity
• QVQLVESGGGLVQAGGSLRLSCAASGSTFQIYAMGWYRQAPGNERELVAAITSSSSTNYADSVKGRFTISRDNAKNTVYLQMNSLKPEDTAVYYCAADVSWRSNWYDYWGQGTQVTVSS = low polyreactivity

// moving on: another record for polyreactivity (PSR sort gate)
Query: Could you share which polyreactivity (PSR sort gate) value was measured for QVQLVESGGGLDQPGGSLRLTWAASGSTFYLYTMGWYRQAHGKERELVARISSSGSTNYADSVKGRFTISRDNAKNAVYLQMNSLKPEDTAVYYCNKDWIYRGYDYWGQATQVTVSS ?
Reply: high polyreactivity

###

- PROTOCOL DETAILS: yeast display, Sf9 membrane polyspecificity reagent, FACS + sequencing; frameworks hold sequencing errors
ASSAY READOUT: polyreactivity (PSR sort gate)

In the examples that follow, each entry is paired with its recorded polyreactivity (PSR sort gate).
- QVQLVESGGGLVQAGGSLRLSCAASGLIFKGYDMGWYRQAPGKERELVAAISSGSTNYADSVKGRFTISRDNAKNTGYLQMNSLKPEDTAVYYCNADLGRATFYQRVFIERGGYWGQGTQVTVSS: low polyreactivity
- QVQLVESGGGLVQAGGSLRLSCAASGRIFQRYAMGWYRQAPGKERELVAAITTGGRTYYADSVKGRFTISRDNAKNTVYLQMNSLKPEDTAVYYCAARFVGSRYRFDYWGQGTQVTVSS: high polyreactivity
- QVQLVESGGGLVQAGGSLRLSCAASGRIFRYYAMGWYRQAPGKERELVAAISGNGGRTSYADSVKGRFTISRDTAKNTVYLQMNSLNPEDTAVYYCAKYPVQSDYLFDHWGQGTQVTVSS: high polyreactivity
- QVQLVESGGGLVQAGGSLRLSCAASGGIFPVYAMGWSRQAPGKERELVATITSDGDTNYADSVKGRFTISRDNAKNTVYLQMNSLKPEDTAVYYCNKDLDYIIVQPHSPELEYWGQGTQVTVSS: low polyreactivity
- QVQLVESGGGLVQAGGSLRLSCAASGIIFWHYAMGMYRQAPGKERELVADISRRGGSTYYADSVKGRFTISRDNAKNTVYLQINSLKPEDNAVYYCAARYHPGGYDSWGQGTQVTVSS: low polyreactivity
- QVQLVESGGGLVQAGVSLRFSCAASGYIFDVNALGWYRQEPGKERELVAAISQRGTRTYYADSVKGRFTITRDNANNTVFLQMNSLKPEYTAVYYCNRGGWRQYDSWGQGTQVTVSS: high polyreactivity
- QVQLVESGGGLVQAGGSLRLSCAASGRTFFWYAMGWYRQAPGKEREFVADINSRGTSTYADSVKGRFTISRDNAKNTVYLQMNSLKPDDTAVYYCAAYRGHLKRYYYWGQGTQVTVSS: high polyreactivity
- QVQLVESGGGLVQAGGSLRLSCAASGITFDYYAMGWYRQAPGKERELVAAITSVGNTYYADSVKGRFTISRDNAKNTVYLQMNSLKPEDTAVYYCNALSFYSLVSFDYWGQGTQVTVSS: low polyreactivity
- QDLLVESGAGLVQAGGSVRLSCAASGRIVYTYAMAWYRQAPGIERELVAVISSGGSTYYADSVKGRFTNSRDNAKNTVYLQMNSLTPEDTAVYYCAAYGTKWGRGFYITGYGYWGQGTQVTVSS: low polyreactivity
- QVQLLESGGGLVQAGGSLRLSCAASGGTFYSYAMGWYRQAPGKERELVATITRRSGSTYYADSVKGRFTISRDNAKNTVYLQMNSLKPEDTAVYYCAATKYKLLFIHFRYDYWGQGTQVTVSS: high polyreactivity

Query: Could you share which polyreactivity (PSR sort gate) value was measured for QVHLVESGGGLVQAGGSLRLSCAASGRIFGYYAMGWYRQAPGKERELVAAISYSTGGTSTYADSVKGRFTISRDNAKNTVYLQMNSLKPEDTAVYYCAVRRQYRRAYSFSQSRYDYWGQGTQVTVSS ?
Reply: high polyreactivity

Query: Could you share which polyreactivity (PSR sort gate) value was measured for QVQLVESGGGLVQAGGSLRLSCAASGFTFRQNAMGWYIQAPGKERELVAAISRGGGGTHYADSVKGRFTISRDNAKNNVYLHMNSLKPEDTAVYYCAKRRYPTFVVPVYYWGQGTQVTVSS ?
Reply: high polyreactivity

Query: Could you share which polyreactivity (PSR sort gate) value was measured for QVQLVESGGGLVQAGGSLRLSCAASGFIFASYAMGWYRQAPGKERELVAAISWRGGSTYYADSVKGRFTISRDNAKNTVYLQMNSLKPEDTAVYYCNAYVYVGTGRGYDTLDYWGQGTQVTVSS ?
Reply: low polyreactivity

###

- PROTOCOL DETAILS: yeast display, Sf9 membrane polyspecificity reagent, FACS + sequencing; frameworks hold sequencing errors
ASSAY READOUT: polyreactivity (PSR sort gate)

In the examples that follow, each entry is paired with its recorded polyreactivity (PSR sort gate).
• QVQLVESGGGLVQAGGSLRLSCAASGSIFFGYGMGWYRQAPGKERELVATITTSGGTYYADAVKGRFTISRDNAKNTVYLQMNSLKPEDTAVYYCAATAAALDGNTIMYYWGQGTQVTVSS = low polyreactivity
• QVQLVESGGGLVQAGGSLRLSCAASGSIFRYYAMGWYRQAPGKDRELVAVITRGGSTYYADSVKGRFTISRDNAKNTVYLQMNSLKPEDTAVYYCAADSWPAGLDRGYWGQGTQVTVSS = low polyreactivity
• QVQLVESGGGLVQAGGSLRLSCAASGSIFIYYAMGWYRQAPGKERELVASISSSGSRTYYADSVKGRFTISRDNAKNTVYLQMNSLKPEETAVYYCAARYAIPRNYPQYNYWGQGTQVTVSS = high polyreactivity
• QVQLVESAGGLVQAGGSLRLSCAASGFIFPTYAMGWYRQAPGKERELVAAITTGGGSTYYADSVKGRFTISRDNAKNTVYLQMNSLKPEDTAVYYCAAEYVAQAGYGEDYWGQGTQVTVSS = low polyreactivity

// moving on: another record for polyreactivity (PSR sort gate)
Query: Could you share which polyreactivity (PSR sort gate) value was measured for QVQLVESGGGLVQAGGSLRLSCAPSGFIFEGNAMGWYRQAPGKERELVATISRSGGRTNYADSVKGRFTISRDNAKNTVYLQMNSLKPEDTAVYYCAAAYLRRVAYDYWGQGTQVTVSS ?
Reply: high polyreactivity

###

- PROTOCOL DETAILS: yeast display, Sf9 membrane polyspecificity reagent, FACS + sequencing; frameworks hold sequencing errors
ASSAY READOUT: polyreactivity (PSR sort gate)

• QVQLVESGGGLVQAGGSLRLSCAASGRTFRAYAMGWYRQAPGKERELVAAITSGGSTYADSVKGRFTISRDNAKNTVYLQMNSLKPEDTAVYYCAADGYKLFYSKFRYVQYGYWGQGTQVTVSS = high polyreactivity
• QVQLVESGGGLVQAGGSLRLSCAASGSIFAQYAMGWYRQAPGKERELVAAITRGGGNTYYADTVKGRFTISRDNAKNTVYLQMNSLKPEDTAVYYCAANRRDGYVYWGQGTQVTVSS = low polyreactivity
• QVQLVESGGRLVQAGGSLRLSCAASGIIFSGYAMGRYRPAPGTVREFVAAIDSVTSTYYADSVKGRFTTSRDNANNTVYLQMISLKPEVTAVYYCNARSDCTWYTLDYWGQGTQVTVSS = high polyreactivity
• QVQLEESGGGLVQAGGSLRLSCAASGIIFHEYALGWYRQAPGKERELDASISWNDGSTYADSVKGRFTISRDNAKNTVYLQMNSQKPEDTAVYYCAADYPYYPFSSIYDYWGQGTQVTVSS = low polyreactivity

// moving on: another record for polyreactivity (PSR sort gate)
Query: Could you share which polyreactivity (PSR sort gate) value was measured for QVQLVESGGGLVQAGGSLRLSCAPSGLIFKKYTMGGYRQSPGKERELVASISKSGGSTYYADSVKGRFTFSRDNAKNTYYLQMNCLKPEDTAVYYCNRVSHYIRFDYWVQGTQVTVSS ?
Reply: low polyreactivity

Values were extracted from the nanobody polyreactivity screen of Harvey et al. (2022).
